Tested on: Wolbachia pipientis
ASSAY INFO: Anti-Wolbachia Cell-Based Screen
Format: functional
Parameters: scale not given: in the data most compounds retested in dose-response had high values
CONDITION NOTES: 5 µM
Screen size: about 48,000 compounds; about 13,000 (27%) showed an effect of 50% or more. This is one part of the list.
Documented Percent Effect across a set of compounds
Please reply with the bare figure in % and do not write the unit itself.

Percent Effect in this record for Cl.NC(c1ccc(Cl)cc1)c1cccs1 (configuration not stated) : -4.089

Entry `CC(C)Oc1ccc(CNC(=O)CC(F)(F)F)cc1F` ; Percent Effect = 4.736

Per the record, `Cc1nc2n(n1)CCN(S(=O)(=O)c1ccc(OC(F)(F)F)cc1)C2` has Percent Effect of -10.24

For reference, reported Percent Effect for `Cn1cc(Br)cc1C(=O)NC1(C#N)CC1` stands at -11.26

Note to self: Percent Effect recorded for CC(C)(C)c1nc(CN2CCOC(Cn3cncn3)C2)cs1 (configuration not stated) was 103.7

The recorded Percent Effect for entry Cc1ccc(CN2CC(C(=O)NC(C)C)C3(CCOCC3)C2)s1.O=C(O)C(F)(F)F (configuration not stated) equals 1.411

# Percent Effect of `CCOCc1ncn2c1CN(S(=O)(=O)c1ccc(OC)cc1)CC2` = 3.877

The compound listed as NC(=O)c1sc2ccccc2c1C1CCN(S(=O)(=O)N2CCOCC2)C1 (configuration not stated) shows Percent Effect equal to 162.8

The recorded Percent Effect for Cc1cnn(CC2CN(Cc3csc(C(C)C)n3)CCO2)c1 (configuration not stated) is 144.1

Value of measured Percent Effect for the entry Cc1cc(=O)[nH]c(SC(C)C(=O)N2CCCN(C3CCCC3)CC2)n1 (configuration not stated) : -14.72

The compound listed as `O=C(c1ccsc1)N1CCC(c2nnc(C3CC3)o2)CC1` has a reported Percent Effect of 116.7

Sure, the documented Percent Effect for `CN(C)C(=O)CNC(=O)c1ccc2c(-c3nccs3)noc2c1` is -0.7255

The compound CC(C)(C)c1nc(CN2CCCC(Cn3cncn3)C2)cs1 (configuration not stated) showed Percent Effect equal to 5.475

Recorded result, CC(C)c1nc(CN2CCOC(Cn3cncn3)C2)cs1 (configuration not stated) , Percent Effect: 78.62

Value of Percent Effect reported for the compound `O=C(c1ccc(O)nc1)N1CCC(Nc2cccnn2)CC1` is 95.42

Notebook: O=S(=O)(N1CCOCC1)N1CCOC(CCc2ccccc2)C1 (configuration not stated) , Percent Effect read as -18.19

# Percent Effect (compound: `COCc1ncn2c1CN(S(=O)(=O)c1cccc(OC)c1)CC2` ) is 5.522

The reported Percent Effect of the compound `O=C(c1ccc(-n2cccn2)nc1)N1CCC(Nc2cccnn2)CC1` was -1.733

Query `O=C(c1ccccc1-n1cccn1)N1CCC(Nc2cccnn2)CC1` yields Percent Effect of 157.4

----------
Tested on: Wolbachia pipientis
ASSAY INFO: Anti-Wolbachia Cell-Based Screen
Assay type: functional
Design: scale not given: in the data most compounds retested in dose-response had high values
CONDITION NOTES: 5 µM
Hit rate of the full screen: of about 48,000 compounds, about 13,000 (27%) showed an effect of 50% or more. The list shows a part of the results.
Entries and their Percent Effect
Form entry: enter the amount, then its unit.

A selection of reference data follows.
CC(=O)N1CCC1c1cc(NC2CCOCC2)nc(C)n1 (stereo unspecified) = 79.3%
Cl.N[C@@H](Cc1ccccc1)c1nnc(S(=O)(=O)Cc2ccc(Cl)cc2)o1 = 72.38%
CCc1nnc(CNCC2CCN(CC(O)c3ccccc3)CC2)o1 (stereo unspecified) = 1.305%
COc1ccc(C(=O)N(c2ccc(OC)c(F)c2)C(C)C)cn1 = 3.547%
Cc1nnc(CN(Cc2cccc(Cl)c2)C(C)C)o1 = -3.327%
Cc1cccc(CS(=O)(=O)NCC(O)Cc2ccccc2)c1 (stereo unspecified) = 2.043%
C=C(C)CN(c1cn[nH]c1)S(=O)(=O)c1cccc(C#N)c1 = -12.41%
N#Cc1cccc(CS(=O)(=O)NC(Cc2ccccc2)C(N)=O)c1 (stereo unspecified) = -5.324%

The recorded Percent Effect with Wolbachia pipientis for NC(=O)C(Cc1ccccc1)NS(=O)(=O)Cc1ccccc1F (stereo unspecified) was -4.164%

For the compound `N#Cc1cccnc1OC1CCN(C(=O)NCc2ccccc2)CC1` , the measured Percent Effect on Wolbachia pipientis was 7.798%

Fill in: Wolbachia pipientis Percent Effect for CC1c2ncc(COCC3CCOCC3)n2CCN1S(C)(=O)=O (stereo unspecified) = -5.189%

----------
System: Wolbachia pipientis
ASSAY INFO: Anti-Wolbachia Cell-Based Screen
Assay type: functional
Design: scale not given: in the data most compounds retested in dose-response had high values
CONDITION NOTES: 5 µM
Among all 48,000 compounds or so, about 13,000 (27%) showed an effect of 50% or more. This is one part of the list.
// values below are reported Percent Effect
Answer in %, number only, no unit symbol.

Some solved entries appear below for comparison.
Cc1nn(C)c2ncc(S(=O)(=O)N3CCCC(C)CC3)cc12 (stereo not drawn) = -7.374
COC(=O)c1ccc(C(=O)N2CCCC(Nc3ccc(F)cc3)C2)cc1 (stereo not drawn) = -50.64
O=S(=O)(C1CC1)N1CCOC2(COCCN(c3ncccn3)C2)C1 (stereo not drawn) = -6.11

Input COc1ccc(Cc2ncc3c(n2)CN(C(=O)C2COCCO2)C3)cc1 (stereo not drawn) . Output Percent Effect: -5.777

Field Percent Effect (entry `Cc1ccccc1Oc1ncccc1CNS(C)(=O)=O` ) reads -1.022

What the record says about CCc1nccn1C1CCCN(C(=O)c2ccn(-c3ccccc3)n2)C1 (stereo not drawn) : Percent Effect is -25.66

The compound identified as `CC1(C)[C@H]2CC=C(CN3CCCn4nc(CCC(=O)O)cc4C3)[C@@H]1C2` registered its Percent Effect at 1.513

According to the records, this compound `O=C1CC2(CCN(C(=O)c3ccccn3)CC2)Oc2c(Br)cc(Br)cc21` displays Percent Effect of 106.1

# compound `Cc1ccc(F)c(OC2(C(=O)O)CCN(C(=O)c3ccncc3)CC2)c1` ; its Percent Effect = 12.09

Measured Percent Effect, NC(=O)C1CCCN(C(=O)c2ccc(-n3ccnc3)cc2)C1 (stereo not drawn) : 0.2074

Sample `O=C(NCC1CC1)c1cc2c(s1)CCN2C(=O)c1ccc(F)cc1` ; Percent Effect observed: 95.26

Entry `O=C1CC2(CCN(C(=O)c3ccccn3)CC2)Oc2c(Cl)cc(Cl)cc21` ; Percent Effect = 107.9

Reported Percent Effect of CCC(C)NC(=O)NCCCn1nc2ccccn2c1=O (stereo not drawn) : -2.078

Percent Effect measured on `CCc1cnc(CN2CCC(O)(c3cc(OC)cc(OC)c3)CC2)o1` = -1.491

In plain terms, O=C(COCC1CCCO1)N(Cc1cccnc1)c1ccc(F)cc1 (stereo not drawn) has a documented Percent Effect of 100.3

The value of Percent Effect measured for the compound `CN(C)C1CCN(C(=O)c2ccnn2-c2ccc3ccccn23)CC1.O=C(O)C(F)(F)F` turned out to be 64.37

The measured Percent Effect associated with O=C(CCc1cccnc1)N(Cc1ccsc1)CC1CCCO1 (stereo not drawn) reads -15.29

Entry O=C(c1ccn(-c2ccc(F)cc2)n1)N1CCCC(n2ccnc2)C1 (stereo not drawn) — recorded Percent Effect = 97.03

----------
Listing: Percent Effect of selected compounds
System: Wolbachia pipientis
ASSAY INFO: Anti-Wolbachia Cell-Based Screen
Type: functional
Set-up: scale not given: in the data most compounds retested in dose-response had high values
CONDITION NOTES: 5 µM
Hit rate of the full screen: of about 48,000 compounds, about 13,000 (27%) showed an effect of 50% or more. The list shows a part of the results.
Provide the reading as a plain figure in %.

O=C(c1cccnc1-c1ccc2c(c1)OCCO2)N1CCCC1 = -9.168

Sample `CN(C)C(=O)c1cccn1-c1ccc2c(c1)OCCO2` ; Percent Effect observed: 99.12

response.value for `O=C(c1cccn1-c1ccc2c(c1)OCCO2)N1CCCC1` (field: Percent Effect) = 97.35

According to the records, this compound `CC(=O)N1CC2(CCN(C(=O)c3ccc4c(c3)OCCO4)CC2)C1` displays Percent Effect of -3.523

Lab note: measured Percent Effect of `CN1CCCN(C(=O)c2ccc3c(c2)nc(N2CCOCC2)n3C)CC1` was 16.47

For reference, reported Percent Effect for `N#Cc1nccnc1N1CCC(c2nc(C(F)(F)F)c[nH]2)CC1` stands at -6.885

----------
Test system: Wolbachia pipientis
ASSAY INFO: Anti-Wolbachia Cell-Based Screen
Format: functional
Parameters: scale not given: in the data most compounds retested in dose-response had high values
CONDITION NOTES: 5 µM
Among all 48,000 compounds or so, about 13,000 (27%) showed an effect of 50% or more. The list shows a part of the results.
PROPERTY LABEL: Percent Effect (%)
Just the number in %, nothing appended.

Example cases with answers are listed next.
N#Cc1ccccc1N1CCCN(C(=O)NCc2cc[nH]n2)CC1 = 136.7
COCC1CN(C(=O)c2cnc(C)cn2)Cc2ncnn2C1 (stereo unspecified) = -2.14
COc1ccccc1CC1CCCN(CCN2CCOC2=O)C1 (stereo unspecified) = -15.91
NC(=O)C(NCc1ccc(Cl)s1)c1ccccc1 (stereo unspecified) = -5.898
CC(C)N1CCC(N2CCC(C(=O)N(C)C)CC2)CC1.O=C(O)C(F)(F)F.O=C(O)C(F)(F)F = 105.3

response.value for CCN(C)C(=O)c1ccc2c(c1)C(c1nc[nH]n1)CN2S(C)(=O)=O (stereo unspecified) (field: Percent Effect) = -2.777

Lab note: `COCCNc1nc2c(c(NCCc3cccs3)n1)CCNCC2` gave Percent Effect of 23.06

Lab note: measured Percent Effect of `CCc1cc(=O)[nH]c2nnc(SCC(=O)NC)n12` was -1.194

The reported Percent Effect of the compound `COCCOCCNC(=O)N1CCN(c2ccccc2C#N)CC1` was 9.744

CCn1ccnc1CN1CCC(=O)N(CC2CC2)C(C(C)C)C1 (stereo unspecified) has a reported Percent Effect of -13.21

Lookup result for `CC1=C[C@@H](CN2CCOCC2)[C@H](C(C)C)C[C@H]1Cc1nnc(C)o1` ; measured Percent Effect: -6.193
